# Test system: corn (Zea mays L.)
# protocol.notes: Test Example 2: soil application on the day after sowing, corn
# Type: in vivo
# conditions: 250 g/ha active ingredient, observed 19th to 28th day after application
metric.name: Growth inhibition rate (%) Corn
Report the value in % with no unit label.

Consider the worked cases shown below.
| compound | reported.result |
| --- | --- |
| COC(C)COc1c(S(C)(=O)=O)ccc(C(=O)c2cnn(C)c2O)c1C (stereo not drawn) [compound 227] | 0 |
| Cc1c(C(=O)c2cnn(C)c2O)ccc(S(C)(=O)=O)c1OC(C)C [compound 145] | 0 |

Query: GET Growth inhibition rate (%) Corn | system: corn (Zea mays L.) | item: COCCOc1c(S(C)(=O)=O)ccc(C(=O)c2cnn(C(C)C)c2O)c1C [compound 258]
Result: 0

Query: Print corn (Zea mays L.) Growth inhibition rate (%) Corn for CCCOC(=O)c1c(S(C)(=O)=O)ccc(C(=O)c2cnn(CC)c2O)c1Cl [compound 154] .
Result: 0

Query: Would you please give the reported Growth inhibition rate (%) Corn of COCCOc1c(S(C)(=O)=O)ccc(C(=O)c2c(C)nn(C(C)C)c2O)c1C [compound 260] with corn (Zea mays L.)?
Result: 60

Query: Provide Growth inhibition rate (%) Corn, tested on corn (Zea mays L.), for COCCOc1c(S(C)(=O)=O)ccc(C(=O)c2c(C)nn(C)c2O)c1C [compound 259] .
Result: 0

Query: // fetch Growth inhibition rate (%) Corn; item: COCC(C)Oc1c(S(C)(=O)=O)ccc(C(=O)c2cnn(C)c2O)c1C (stereo not drawn) [compound 254] ; system: corn (Zea mays L.)
Result: 0

* * *

# System: velvetleaf (Abutilon theophrasti MEDIC.)
# protocol.notes: Test Example 1: foliar treatment, upland pot test, velvetleaf
# Type: in vivo
# conditions: Abutilon theophrasti, 31 g/ha active ingredient, observed 17th to 25th day after application, read-out: Growth inhibition rate (%) Velvetleaf
metric.name: inhibition at 31 g/ha (%)
Report only the number, with the unit % understood.

Please review the entries below; each comes with its answer.
| compound | tgt | unit.abbreviation | inhibition at 31 g/ha |
| --- | --- | --- | --- |
| Cc1c(C(=O)c2cnn(C)c2O)ccc(S(C)(=O)=O)c1C#N [compound 171] | velvetleaf (Abutilon theophrasti MEDIC.) | % | 75 |
| CCOC(=O)c1c(S(C)(=O)=O)ccc(C(=O)c2cnn(CC)c2O)c1Cl [compound 153] | velvetleaf (Abutilon theophrasti MEDIC.) | % | 70 |
| COCCOc1c(S(C)(=O)=O)ccc(C(=O)c2cnn(C)c2O)c1C [Compound No. 151] | velvetleaf (Abutilon theophrasti MEDIC.) | % | 98 |
| Cc1c(C(=O)c2cnn(C)c2O)ccc(S(C)(=O)=O)c1OC(F)F [compound 146] | velvetleaf (Abutilon theophrasti MEDIC.) | % | 50 |
| COC(COc1c(S(C)(=O)=O)ccc(C(=O)c2cnn(C)c2O)c1C)OC [Compound No. 1] | velvetleaf (Abutilon theophrasti MEDIC.) | % | 100 |
| Cc1c(C(=O)c2cnn(C)c2O)ccc(S(C)(=O)=O)c1CC1OCCO1 [compound 256] | velvetleaf (Abutilon theophrasti MEDIC.) | % | 100 |
| CCn1ncc(C(=O)c2ccc(S(C)(=O)=O)c(C(=O)OC)c2C)c1O [compound 127] | velvetleaf (Abutilon theophrasti MEDIC.) | % | 100 |
| Cn1ncc(C(=O)c2ccc(S(C)(=O)=O)c(Cl)c2Cl)c1O [compound 238] | velvetleaf (Abutilon theophrasti MEDIC.) | % | 30 |
| CCOc1c(S(C)(=O)=O)ccc(C(=O)c2cnn(C)c2O)c1C [compound 144] | velvetleaf (Abutilon theophrasti MEDIC.) | % | 100 |
| COC(=O)c1c(S(C)(=O)=O)ccc(C(=O)c2cnn(C)c2O)c1C [compound 126] | velvetleaf (Abutilon theophrasti MEDIC.) | % | 100 |

Query: Please indicate inhibition at 31 g/ha recorded for COc1c(S(C)(=O)=O)ccc(C(=O)c2cnn(C)c2O)c1C [compound 143]
Result: 98
